Test system: full length IL-2 (amino acids 1-153) fused to Gaussia Luciferase
TEST SUMMARY: Dox Induced IL2-FL-Gluc Assay
Assay type: cell-based
DETAILS: 24 hr, Dox inducible, 293FRT/TO cells; read-out: 24 hr Dox Inducible IL2FLGluc 293FRT/TO: Mean IC50
ENDPOINT: IC50 (nM)

Some entries whose results are on file:
COMPOUND | MEASUREMENT TARGET | IC50, nM
COc1ccc(N2CCN(S(=O)(=O)N3CCCN(CC4CCCCC4)CCCN(S(=O)(=O)c4ccc(N(C)C)cc4)C[C@H](C)C3)CC2)cc1F | full length IL-2 (amino acids 1-153) fused to Gaussia Luciferase | 176
Cc1cc(F)ccc1N1CCN(S(=O)(=O)N2CCCN(CC3CCCCC3)CCCN(S(=O)(=O)c3ccc(N(C)C)cc3)C[C@H](C)C2)C(C)C1 (stereo in doubt) | full length IL-2 (amino acids 1-153) fused to Gaussia Luciferase | 81.2

[a] Cc1cc(F)ccc1N1CCN(S(=O)(=O)N2CCCN(CC3CCCCC3)CCCN(S(=O)(=O)c3ccc(N(C)C)cc3)C[C@H](C)C2)CC1
[b] C[C@H]1CN(S(=O)(=O)c2ccc(N(C)C)cc2)CCCN(C(=O)OCc2ccccc2)CCCN(S(=O)(=O)N2CCc3cc(Cl)ccc3C2)C1
[c] C[C@H]1CN(S(=O)(=O)c2ccc(N(C)C)cc2)CCCN(CC2CCCCC2)CCCN(S(=O)(=O)N2CCN(c3ccccc3Cl)CC2)C1
[d] C[C@@H](CNS(=O)(=O)c1ccc(N(C)C)cc1)CNS(=O)(=O)N1CCc2cc(Cl)ccc2C1
[e] CC[C@H]1CN(S(=O)(=O)c2ccc(N(C)C)cc2)CCCN(CC2CCCCC2)CCCN(S(=O)(=O)N2CCc3cc(Cl)ccc3C2)C1
Put the items in order so that reported IC50 rises from first to last. Please respond by ranking the labels in the order requested.
c, a, e, b, d
(c: 53.3 nM, a: 90.5 nM, e: 256 nM, b: 698 nM, d: 6920 nM)

====

Test system: target signal sequences plus 10 amino acids fused to Gaussia Luciferase
TEST SUMMARY: Transiently Expressed Dox Induced Signal Sequence-Gluc Assay
Type: cell-based
DETAILS: Target EGFR signal peptide +10 amino acids; read-out: Signal Sequence-Gluc potency
pIC50: −log10 of the molar value.
ENDPOINT: pIC50

MOLECULE | MEASURED RESULT
C[C@H]1CN(S(=O)(=O)c2ccc(N(C)C)cc2)CCCN(CC2CCCCC2)CCCN(S(=O)(=O)N2CCc3cc(Cl)ccc3C2)C1 [A87] | 7.22

[I] COc1cc(F)ccc1N1CCN(S(=O)(=O)N2CCCN(CC3CCCCC3)CCCN(S(=O)(=O)c3ccc(N(C)C)cc3)C[C@H](C)C2)CC1 [A137]
[II] C[C@H]1CN(S(=O)(=O)c2ccc(N(C)C)cc2)CCCN(CC2CCCCC2)CCCN(S(=O)(=O)N2CCc3c(C#N)cccc3C2)C1 [A151]
// compare measured pIC50, left I , right II , return larger Select an item and report its label.
I

====

System: target signal sequences plus 10 amino acids fused to Gaussia Luciferase
TEST SUMMARY: Transiently Expressed Dox Induced Signal Sequence-Gluc Assay
Assay type: cell-based
DETAILS: Target ADAM10 signal peptide +10 amino acids; read-out: Signal Sequence-Gluc potency
ENDPOINT: IC50 (nM)

MOLECULE | IC50 (nM)
COc1cc(F)ccc1N1CCN(S(=O)(=O)N2CCCN(CC3CCCCC3)CCCN(S(=O)(=O)c3ccc(N(C)C)cc3)C[C@H](C)C2)CC1 [A137] | 127

[A] C[C@H]1CN(S(=O)(=O)c2ccc(N(C)C)cc2)CCCN(CC2CCCCC2)CCCN(S(=O)(=O)N2CCc3cc(Cl)ccc3C2)C1 [A87]
[B] C[C@H]1CN(S(=O)(=O)c2ccc(N(C)C)cc2)CCCN(CC2CCCCC2)CCCN(S(=O)(=O)N2CCc3c(C#N)cccc3C2)C1 [A151]
Quick one: lower IC50, A or B ? Lab log: write the label of the selected item as the result.
A
